assay: qHTS for induction of synthetic lethality in tumor cells producing 2HG: qHTS for the HT-1080-IDH1KD cell line; conditions: HT-1080 IDH1 knockdown viability, ATP luminescence, 48 h; series mostly up to 46.1 µM
In all, about 360,000 compounds went through this assay and about 7,500 (2.1%) were called active. Inconclusive results (about 8%) are left out. The call rests on the fitted dose curve; in most records, active means well fitted cell-killing curve with a large enough effect; inconclusive means small, poorly fitted or top-dose-only effect, or effect the other way, or another doubt; inactive means no such curve, though single readings can be large or run the other way. The entries come from a sample that favours actives as a whole.
Your response should consist of one outcome taken from true (1) (active), false (0) (inactive)

Fill in: this test's call for `COc1ccc2sc(N(CCCN(C)C)C(=O)c3ccc(S(=O)(=O)N(C)C4CCCCC4)cc3)nc2c1` is ___
false (0)

Fill in: this test's call for `COC(=O)C1(C(=O)OC)C/C=C\CN(S(=O)(=O)c2ccccc2[N+](=O)[O-])CCC1` is ___
false (0)

Fill in: this test's call for COc1ccc(NC(=O)C2(C)Cc3c(-c4ccc(C(N)=O)cc4)ccnc3O2)cc1 (stereo not drawn) is ___
false (0)

Fill in: this test's call for `COCCNc1ncnc2c1ncn2[C@H]1CN(Cc2ccc(OC)cc2)C[C@@H](CO)O1` is ___
false (0)

Fill in: this test's call for `Brc1ccc2nc(-c3ccccc3)c(Cc3ccccc3)n2c1` is ___
false (0)

Fill in: this test's call for `O=C(NCc1ccc2c(c1)OCO2)c1cc(F)c(F)cc1Cl` is ___
false (0)

Fill in: this test's call for CC1=C(C(=O)Nc2cccc(C(=O)NCC(C)c3ccccc3)c2)SCCO1 (stereo not drawn) is ___
false (0)

Fill in: this test's call for CC1(C(=O)Nc2cccc3c2CCCC3)CCN1C(=O)C1(c2ccccc2)CC1 (stereo not drawn) is ___
false (0)

Fill in: this test's call for `O=S(=O)(Nc1ccc(O)c2ccccc12)c1ccc(OC(F)(F)F)cc1` is ___
true (1)

Fill in: this test's call for `Cc1cc(C)n2c(NCc3ccccc3)c(CC(C)C)nc2n1` is ___
false (0)

Fill in: this test's call for Cc1cccc(CN2CCN(C3CN(Cc4cn(Cc5ccccc5F)nn4)S(=O)(=O)C3)CC2)c1 (stereo not drawn) is ___
false (0)

Fill in: this test's call for COc1cccc(C(O)c2nc(-c3ccc(C)c(C)c3)cs2)c1 (stereo not drawn) is ___
false (0)

Fill in: this test's call for CC1(C(=O)Nc2cccnc2)Cc2c(-c3ccccc3)ccnc2O1 (stereo not drawn) is ___
false (0)

Fill in: this test's call for COc1ccc(C(C(=O)NCc2ccccc2)n2c(=O)c(-c3ccccc3)nc3ccccc32)cc1 (stereo not drawn) is ___
false (0)

Fill in: this test's call for CCOC(=O)C1CCCN(C(=O)c2cccc3ccccc23)CC1 (stereo not drawn) is ___
false (0)

Fill in: this test's call for `Brc1ccc2c(c1)[C@H]1OCC[C@H]1[C@@H](c1cccs1)N2` is ___
true (1)

Fill in: this test's call for COc1ccc(NC(=O)C2Cc3c(-c4cccc(NC(C)=O)c4)ccnc3O2)cc1OC (stereo not drawn) is ___
false (0)

Fill in: this test's call for COc1ccc(C(O)c2nc(-c3ccc(OC)nc3)cs2)cc1 (stereo not drawn) is ___
false (0)

====

assay: qHTS for induction of synthetic lethality in tumor cells producing 2HG: qHTS for the HT-1080-IDH1KD cell line; conditions: HT-1080 IDH1 knockdown viability, ATP luminescence, 48 h; series mostly up to 46.1 µM
The whole screen tested about 360,000 compounds, of which about 7,500 (2.1%) were called active. Inconclusive results (about 8%) are left out. The call rests on the fitted dose curve; in most records, active means well fitted cell-killing curve with a large enough effect; inconclusive means small, poorly fitted or top-dose-only effect, or effect the other way, or another doubt; inactive means no such curve, though single readings can be large or run the other way. For the sample, actives were picked, then their nearest neighbours and some compounds at random.
Your response should consist of one outcome taken from active, inactive

Fill in: this test's call for `Cc1ccccc1OCCOc1ccc([N+](=O)[O-])cc1/C=N/n1cnnc1` is ___
active

Fill in: this test's call for `Cc1c(CCO)c(=O)[nH]n1C(=O)c1c(F)cccc1F` is ___
active

Fill in: this test's call for `Cc1c(CCO)c(=O)n(-c2ccccc2)n1S(=O)(=O)c1ccc(F)cc1` is ___
inactive

Fill in: this test's call for COc1cc(C(O)c2nc(-c3cccc(C(=O)O)c3)cs2)ccc1F (stereo not drawn) is ___
inactive

Fill in: this test's call for `CN1OC[C@@H]2CN(S(=O)(=O)c3cccc4ccccc34)[C@H](c3ccc(N4CCCCC4)cc3)C[C@@H]21` is ___
inactive

Fill in: this test's call for `Cc1cc(C)nc(SCc2ccccc2C#N)n1` is ___
inactive

Fill in: this test's call for `O=C1c2ccccc2C(=O)N1CCC#Cc1ccc2cc(C3(O)CCCCC3)oc(=O)c2c1` is ___
inactive

Fill in: this test's call for O=C(Nc1ccc(F)cc1)C(CCc1ccccc1)N1CCN(CC(=O)N2CCCC2)CC1 (stereo not drawn) is ___
inactive

Fill in: this test's call for `COc1cc(/C=C2\Oc3ccc(C#Cc4ccc(O)cc4)cc3C2=O)cc(OC)c1` is ___
inactive

Fill in: this test's call for CCCCC(O)C1=C[N+](=O)CC=C1 (stereo not drawn) is ___
inactive

Fill in: this test's call for `O=C(Oc1ccc(-c2nc(-c3ccccn3)no2)cc1)c1ccccc1` is ___
active

Fill in: this test's call for `O=C(COC(=O)c1ccncc1)c1ccccc1` is ___
inactive

Fill in: this test's call for CCCCNC(=O)C1CCCNC1=O (stereo not drawn) is ___
inactive

Fill in: this test's call for C[C@@H]1CC[C@@]2(OC1)O[C@H]1C[C@H]3[C@@H]4CC=C5C[C@@H](O)[C@H](O)C[C@]5(C)C4CC[C@]3(C)[C@H]1[C@@H]2C (stereo partly drawn) is ___
inactive

Fill in: this test's call for `O=C(/C(=C/c1cccc(Cl)c1)c1nc2ccccc2[nH]1)c1ccccc1` is ___
active

Fill in: this test's call for `CC(=O)N/N=C(\C)c1ccc(Br)cc1Br` is ___
inactive

Fill in: this test's call for `COc1ccc(CNC(=O)CCn2cccc2)cc1` is ___
inactive

Fill in: this test's call for `COc1ccc(NC(=O)/C(C#N)=C\c2cc(OC)c(OCc3ccc(C(=O)O)cc3)cc2Br)cc1` is ___
inactive

Fill in: this test's call for `Cc1cc(=O)c2ccc(NC(=O)c3ccccc3)cc2[nH]1` is ___
inactive

Fill in: this test's call for `Cc1cc(C)nc(S/C=C/C(=O)c2ccccc2)n1` is ___
active

Fill in: this test's call for CCc1ccc(OC2(C)CCN(CCOc3ccc(C)cc3)C2)cc1 (stereo not drawn) is ___
inactive

Fill in: this test's call for `CCCNC(=O)C[C@@H]1CC[C@@H]2[C@H](COC[C@H](O)CN2C(=O)c2cc(Cl)cc(Cl)c2)O1` is ___
inactive

Fill in: this test's call for `CSc1nc(-c2ccccc2)nc(C(Cl)Cl)n1` is ___
active

Values from PubChem BioAssay AID686971
